- Tested on: A-172
- measurement.notes: ONCOLINES Profiler proliferation
- Type: cell-based
- run.conditions: Homo sapiens, A 172, A-172, glioblastoma
- From the text: The compounds were profiled on an ONCOLINES™ Profiler (Netherlands Translational Research Center) assayed with 66 cancer cell lines to determine if they were capable of inhibiting the proliferation of these cancer cells. To further evaluate potency of the compounds, they were compared with the USP9X inhibitor WP 1130 by screening both the compounds and WP1130 on a 66-cancer cell line panel ONCOLINES™ Profiler.
observed.property: IC50 (nM)
Expressed in nM, but write only the number.

Q. Item under review: CN1CCOc2ccc(cc2)C(=O)NCc2ccc(F)c(c2)C(=O)N[C@@H](CC(C)(C)C)C(=O)Nc2ccc(cc2)CCN(C)C(=O)CC(C)(C)CC1=O . Reported IC50?
A. 1070

###

- system.tested: UniProtKB Q93008
- measurement.notes: Steady-state enzyme inhibition kinetics of USP9X
- Assay type: biochemical
- run.conditions: from the y intercept of the 1/Δ slope vs 1/[I] plot; read-out: KI, nM (2)
observed.property: Ki (nM)
Reply with just the number (in nM).

Solved cases below.
[
  {
    "molecule": "CC(C)(C)C[C@@H]1NC(=O)c2cccc(c2)CNC(=O)c2ccc(cc2)OCCNC(=O)CC(C)(C)CC(=O)N[C@H](C(=O)O)Cc2ccc(cc2)NC1=O",
    "unit.symbol": "nM",
    "Ki": 290
  },
  {
    "molecule": "CN1CCOc2ccc(cc2)C(=O)NCc2cccc(c2)C(=O)N[C@@H](CC(C)(C)C)C(=O)Nc2ccc(cc2)CCN(C)C(=O)CC(C)(C)CC1=O",
    "unit.symbol": "nM",
    "Ki": 24
  }
]

Q. API: value(readout=Ki, system=UniProtKB Q93008) for record CN1CCOc2ccc(cc2)C(=O)NCc2ccc(F)c(c2)C(=O)N[C@@H](CC(C)(C)C)C(=O)Nc2ccc(cc2)CCN(C)C(=O)CC(C)(C)CC1=O
A. 10.3

Q. # returns recorded Ki (system: UniProtKB Q93008) for CN1CCOc2ccc(c(F)c2)C(=O)NCc2ccc(F)c(c2)C(=O)N[C@@H](CC(C)(C)C)C(=O)Nc2ccc(cc2)CCN(C)C(=O)CC(C)(C)CC1=O [Compound 11A]
A. 69

###

Reported IC50 is given for each of the following molecules.
- Test system: MDA-MB-231 cells
- measurement.notes: WST-1 cell viability assay
- Assay type: cell-based
- run.conditions: Homo sapiens, 72 hours, single agent, read-out: IC50, cell viability
Give a bare numeral; the unit µM is implied.

[
  {
    "molecule": "CN(C)CC[C@H](CSc1ccccc1)Nc1ccc(S(=O)(=O)NC(=O)c2ccc(N3CCN(Cc4ccccc4-c4ccc(Cl)cc4)CC3)cc2)cc1[N+](=O)[O-] [ABT737, reference compound]",
    "unit.symbol": "µM",
    "numeric.value": 8.7
  }
]

Q. Can you share its IC50? I mean this molecule: CN1CCOc2ccc(c(F)c2)C(=O)NCc2cccc(c2)C(=O)N[C@@H](CC(C)(C)C)C(=O)Nc2ccc(cc2)CCN(C)C(=O)CC(C)(C)CC1=O [Compound 9A]
A. 2

###

- system.tested: USP9X (Homo sapiens (Human), UniProt Q93008)
- Sequence (Q93008 whole entry): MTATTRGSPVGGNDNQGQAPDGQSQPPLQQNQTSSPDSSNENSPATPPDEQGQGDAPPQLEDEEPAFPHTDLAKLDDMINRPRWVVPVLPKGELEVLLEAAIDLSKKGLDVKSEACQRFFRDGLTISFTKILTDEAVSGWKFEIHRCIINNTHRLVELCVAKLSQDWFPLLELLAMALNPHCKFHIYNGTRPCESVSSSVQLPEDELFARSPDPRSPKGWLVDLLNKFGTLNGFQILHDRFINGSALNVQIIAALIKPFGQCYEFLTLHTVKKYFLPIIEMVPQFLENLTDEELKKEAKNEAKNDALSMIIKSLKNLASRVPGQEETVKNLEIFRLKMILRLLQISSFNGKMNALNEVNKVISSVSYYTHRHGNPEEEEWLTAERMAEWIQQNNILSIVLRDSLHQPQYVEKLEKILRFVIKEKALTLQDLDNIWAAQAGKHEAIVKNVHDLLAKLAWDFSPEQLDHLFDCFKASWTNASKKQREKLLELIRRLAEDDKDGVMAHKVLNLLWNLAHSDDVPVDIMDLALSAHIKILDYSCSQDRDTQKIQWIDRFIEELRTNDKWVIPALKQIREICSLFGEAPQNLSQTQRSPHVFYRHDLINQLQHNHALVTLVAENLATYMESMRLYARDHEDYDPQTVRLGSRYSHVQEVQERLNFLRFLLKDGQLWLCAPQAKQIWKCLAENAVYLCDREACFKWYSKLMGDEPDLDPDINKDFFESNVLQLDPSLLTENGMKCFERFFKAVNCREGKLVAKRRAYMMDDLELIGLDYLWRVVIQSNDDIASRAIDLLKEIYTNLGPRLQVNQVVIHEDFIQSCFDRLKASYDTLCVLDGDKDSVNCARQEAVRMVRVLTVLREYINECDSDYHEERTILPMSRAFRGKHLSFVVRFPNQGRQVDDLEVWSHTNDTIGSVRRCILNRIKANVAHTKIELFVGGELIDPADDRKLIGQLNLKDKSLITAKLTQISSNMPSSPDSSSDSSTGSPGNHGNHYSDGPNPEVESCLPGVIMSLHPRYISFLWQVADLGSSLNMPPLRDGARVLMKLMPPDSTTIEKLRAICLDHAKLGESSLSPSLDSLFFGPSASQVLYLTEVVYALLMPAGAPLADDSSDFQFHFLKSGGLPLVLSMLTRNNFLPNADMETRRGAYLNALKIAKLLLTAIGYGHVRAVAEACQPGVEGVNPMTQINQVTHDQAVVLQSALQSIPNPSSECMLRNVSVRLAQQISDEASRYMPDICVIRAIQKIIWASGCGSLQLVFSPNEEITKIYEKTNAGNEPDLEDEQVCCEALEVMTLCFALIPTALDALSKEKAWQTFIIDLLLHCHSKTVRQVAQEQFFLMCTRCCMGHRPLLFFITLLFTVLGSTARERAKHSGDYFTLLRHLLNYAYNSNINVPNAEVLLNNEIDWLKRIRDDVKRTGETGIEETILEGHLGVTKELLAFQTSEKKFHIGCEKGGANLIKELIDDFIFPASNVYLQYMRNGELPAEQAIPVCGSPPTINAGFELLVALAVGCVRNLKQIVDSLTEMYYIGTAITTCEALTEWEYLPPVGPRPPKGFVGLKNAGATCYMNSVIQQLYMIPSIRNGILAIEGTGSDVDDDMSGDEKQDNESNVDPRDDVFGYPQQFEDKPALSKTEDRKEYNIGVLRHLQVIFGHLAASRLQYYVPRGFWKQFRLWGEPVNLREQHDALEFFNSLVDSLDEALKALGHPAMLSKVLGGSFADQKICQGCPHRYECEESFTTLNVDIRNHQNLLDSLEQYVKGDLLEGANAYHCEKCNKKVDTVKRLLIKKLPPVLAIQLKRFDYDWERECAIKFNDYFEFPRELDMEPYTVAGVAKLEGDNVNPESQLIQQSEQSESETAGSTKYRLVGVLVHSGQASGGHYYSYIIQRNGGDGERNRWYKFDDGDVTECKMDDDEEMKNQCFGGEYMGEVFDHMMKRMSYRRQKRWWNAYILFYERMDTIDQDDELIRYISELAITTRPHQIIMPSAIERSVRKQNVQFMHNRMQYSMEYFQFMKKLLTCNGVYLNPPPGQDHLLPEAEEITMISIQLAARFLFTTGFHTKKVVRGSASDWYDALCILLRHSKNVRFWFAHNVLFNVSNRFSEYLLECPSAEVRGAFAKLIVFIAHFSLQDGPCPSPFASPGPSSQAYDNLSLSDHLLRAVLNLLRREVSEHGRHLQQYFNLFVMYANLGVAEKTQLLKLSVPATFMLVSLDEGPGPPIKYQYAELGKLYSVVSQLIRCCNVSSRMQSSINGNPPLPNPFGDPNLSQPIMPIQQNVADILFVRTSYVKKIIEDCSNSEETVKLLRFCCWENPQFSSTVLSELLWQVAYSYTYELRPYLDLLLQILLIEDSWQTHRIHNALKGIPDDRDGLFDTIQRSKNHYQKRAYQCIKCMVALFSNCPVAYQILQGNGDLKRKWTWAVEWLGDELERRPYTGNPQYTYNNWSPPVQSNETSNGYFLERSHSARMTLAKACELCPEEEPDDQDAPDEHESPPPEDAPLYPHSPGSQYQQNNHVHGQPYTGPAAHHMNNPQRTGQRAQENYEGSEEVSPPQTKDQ
- measurement.notes: Steady-state enzyme inhibition kinetics of USP9X
- Assay type: biochemical
observed.property: VMAX RFU/min (RFU/min)
# output: bare number, implied unit RFU/min

[
  {
    "molecule": "CN1CCOc2ccc(cc2)C(=O)NCc2cccc(c2)C(=O)N[C@@H](CC(C)(C)C)C(=O)Nc2ccc(cc2)CCN(C)C(=O)CC(C)(C)CC1=O [Compound 5A]",
    "VMAX RFU/min (RFU/min)": 335
  },
  {
    "molecule": "CN1CCOc2ccc(cc2)C(=O)NCc2ccc(F)c(c2)C(=O)N[C@@H](CC(C)(C)C)C(=O)Nc2ccc(cc2)CCN(C)C(=O)CC(C)(C)CC1=O [Compound 7A]",
    "VMAX RFU/min (RFU/min)": 589
  },
  {
    "molecule": "CC(C)(C)C[C@@H]1NC(=O)c2cccc(c2)CNC(=O)c2ccc(cc2)OCCNC(=O)CC(C)(C)CC(=O)N[C@H](C(=O)O)Cc2ccc(cc2)NC1=O [Compound 2A]",
    "VMAX RFU/min (RFU/min)": 310
  }
]

Please examine the following record next.
Q. Notebook: pull reported VMAX RFU/min for USP9X (Homo sapiens (Human), UniProt Q93008), entry CN1CCOc2ccc(c(F)c2)C(=O)NCc2ccc(F)c(c2)C(=O)N[C@@H](CC(C)(C)C)C(=O)Nc2ccc(cc2)CCN(C)C(=O)CC(C)(C)CC1=O [Compound 11A]
A. 408
